Experiment: Background absorbance at 340 nm of Reagent A containing releasing agent
Type: physicochemical
Details: ANS 0.25 mM, anisic acids 12.5 mM in Rgt A
Protocol: In both runs, the background absorbance at 340 nm for each Reagent A was measured in duplicate on a 230-μL combination of 3 μL negative NHP, 72 μL of deionized water, and 155 μL Reagent A. The cell path length was 0.6 cm. […] These changes are noted as follows. Reagent B and water were added in cycle 4. The analysis was finished at the end of cycle 15. Rates were determined using the 5 absorbance readings of cycles 11 through 15.
test-readout: D ΔA = agent - control ΔA 340 nm
Enter a number only.

Guide cases for D ΔA = agent - control ΔA 340 nm, answers given:
{"compound": "COc1ccc(C(=O)O)cc1 [p-AA]", "D ΔA = agent - control ΔA 340 nm": 0.008}
{"compound": "COc1cccc(C(=O)O)c1 [m-AA]", "D ΔA = agent - control ΔA 340 nm": 0.008}
{"compound": "O=S(=O)(O)c1cccc2cccc(Nc3ccccc3)c12 [ANS, 8-anilino-1-naphthalene sulfonic acid, reference compound]", "D ΔA = agent - control ΔA 340 nm": 0.322}

**Q:** Please list D ΔA = agent - control ΔA 340 nm recorded for the compound COc1ccccc1C(=O)O [o-AA, o-methoxybenzoic acid]
**A:** 0.004
